# Test System: calmodulin (CaM) (Xenopus laevis, UniProt P0DP33)
# Construct: (CaM; 1-150 AA; GenBank/NM001087395); expressed in transfected cells; host or cells: COS-7 or HeLa cells, pSica-5 in pcDNA3.1(+)
# Assay Details: Ca^2+ concentration-dependent luminescence intensity in living cells transfected with pSica-5
# Type: cell-based
# Test Parameters: COS-7 cells transfected with pSica-5; 2 μM ionomycin; PBS; read-out: 50% effective concentration (EC50) based on changes in luminescence intensities
Quantity Measured: EC50 (µM)
Give bare numbers, in µM.

If you can, please state the reported EC50 value of [Ca+2] [Ca^2+] .
25

---

# Test System: calmodulin (CaM) (Xenopus laevis, UniProt P0DP33)
# Construct: (CaM; 1-150 AA; GenBank/NM001087395); expressed in transfected cells; host or cells: COS-7 or HeLa cells, pSica-5 in pcDNA3.1(+)
# Assay Details: Ca^2+ concentration-dependent luminescence intensity in living cells transfected with pSica-5
# Assay type: cell-based
# Test Parameters: HeLa cells transfected with pSica-5; 2 μM ionomycin; PBS; read-out: 50% effective concentration (EC50) based on changes in luminescence intensities
Quantity Measured: EC50 (µM)
Give bare numbers, in µM.

What value of measured EC50 is listed for "[Ca+2]" ?
50
